# Tgt: UniProt P39900
# Sequence (P39900 106-470): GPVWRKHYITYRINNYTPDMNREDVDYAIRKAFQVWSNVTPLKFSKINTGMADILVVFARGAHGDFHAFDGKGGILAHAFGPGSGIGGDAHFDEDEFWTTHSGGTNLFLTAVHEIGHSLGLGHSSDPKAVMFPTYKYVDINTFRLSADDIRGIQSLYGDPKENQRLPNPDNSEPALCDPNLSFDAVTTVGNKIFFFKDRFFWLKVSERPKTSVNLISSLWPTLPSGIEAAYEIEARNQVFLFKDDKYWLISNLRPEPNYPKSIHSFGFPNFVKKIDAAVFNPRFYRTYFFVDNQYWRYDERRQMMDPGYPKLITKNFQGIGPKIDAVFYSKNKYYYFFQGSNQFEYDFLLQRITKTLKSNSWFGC
# Test Summary: Inhibition constant (Ki) on MMP-12h
# Assay type: biochemical
# Experimental Conditions: read-out: Ki MMP-12h; human MMP-12
pKi: −log10 of the molar value.
Assay Readout: pKi

{"Compound": "O=C(O)CC[C@H](NC(=O)CCc1ccc(-c2ccc(-c3ccccc3)cc2)cc1)C(=O)N1CCC[C@@H](CC(=O)O)C1 [Compound 70]", "Assay Readout": "pKi", "Recorded Number": 8.33}
{"Compound": "NC(=O)[C@H](CCC(=O)O)NC(=O)[C@H](CCC(=O)O)NC(=O)CCc1ccc(-c2cccc(CO)c2)cc1 [Compound 60]", "Assay Readout": "pKi", "Recorded Number": 7.28}
{"Compound": "NC(=O)[C@H](Cc1c[nH]cn1)NC(=O)[C@H](CCC(=O)O)NC(=O)CCc1ccc(-c2cccs2)cc1 [Compound 86]", "Assay Readout": "pKi", "Recorded Number": 7.47}
{"Compound": "NC(=O)[C@H](CCC(=O)O)NC(=O)[C@H](CC(=O)O)NC(=O)CCc1cc(-c2ccc(-c3ccccc3)cc2)no1 [Compound 17]", "Assay Readout": "pKi", "Recorded Number": 7.28}

* * *

# Tgt: MMP-2h (Homo sapiens (Human), UniProt P08253)
# Sequence (P08253 110-660): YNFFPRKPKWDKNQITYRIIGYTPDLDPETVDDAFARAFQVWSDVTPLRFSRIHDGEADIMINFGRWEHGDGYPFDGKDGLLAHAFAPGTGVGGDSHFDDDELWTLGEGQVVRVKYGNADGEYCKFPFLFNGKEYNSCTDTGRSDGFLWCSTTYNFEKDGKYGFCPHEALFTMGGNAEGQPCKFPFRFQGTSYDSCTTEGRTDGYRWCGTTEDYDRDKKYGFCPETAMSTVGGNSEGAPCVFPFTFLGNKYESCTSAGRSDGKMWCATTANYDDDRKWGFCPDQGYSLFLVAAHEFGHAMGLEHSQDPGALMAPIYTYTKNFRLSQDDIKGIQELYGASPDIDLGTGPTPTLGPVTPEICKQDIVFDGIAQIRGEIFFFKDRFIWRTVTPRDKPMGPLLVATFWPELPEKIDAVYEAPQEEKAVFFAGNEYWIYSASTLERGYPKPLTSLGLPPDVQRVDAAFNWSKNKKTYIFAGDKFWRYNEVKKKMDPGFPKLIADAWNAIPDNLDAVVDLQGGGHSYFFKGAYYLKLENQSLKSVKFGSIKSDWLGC
# Test Summary: Inhibition constant (Ki) on MMP-2h
# Format: biochemical
# Experimental Conditions: read-out: Ki MMP-2h; human MMP-2
pKi: −log10 of the molar value.
Assay Readout: pKi

{"Compound Structure": "NC(=O)[C@H](CCC(=O)O)NC(=O)[C@H](CCC(=O)O)NC(=O)CCc1ccc(-c2ncccn2)cc1", "Operator Symbol": "<", "Recorded Number": 5.30}
{"Compound Structure": "NC(=O)[C@H](CCC(=O)O)NC(=O)[C@H](CCC(=O)O)NC(=O)CCc1ccc(I)cc1", "Operator Symbol": "<", "Recorded Number": 6.00}
{"Compound Structure": "NC(=O)[C@H](CCC(=O)O)NC(=O)CCc1cc(-c2ccc(-c3cccc(Cl)c3)cc2)no1", "Operator Symbol": "=", "Recorded Number": 7.05}
{"Compound Structure": "NC(=O)[C@H](CC(=O)O)NC(=O)[C@H](CCC(=O)O)NC(=O)CCc1cc(-c2ccc(-c3cccc(Cl)c3)cc2)no1", "Operator Symbol": "=", "Recorded Number": 6.95}
{"Compound Structure": "NC(=O)[C@H](CCC(=O)O)NC(=O)[C@@H](CCC(=O)O)NC(=O)CCc1cc(-c2ccc(-c3cccc(Cl)c3)cc2)no1", "Operator Symbol": "=", "Recorded Number": 6.39}
{"Compound Structure": "NC(=O)CC[C@H](NC(=O)[C@H](CCC(=O)O)NC(=O)CCc1ccc(-c2cc(-c3ccccc3)cs2)cc1)C(N)=O", "Operator Symbol": "<", "Recorded Number": 6.00}
{"Compound Structure": "O=C(O)CC[C@H](NC(=O)CCc1ccc(-c2ccccc2)cc1)C(=O)Nc1cccc(CC(=O)O)c1", "Operator Symbol": "=", "Recorded Number": 6.26}
{"Compound Structure": "NC(=O)[C@H](CCC(=O)O)NC(=O)[C@H](CCC(=O)O)NC(=O)CCc1ccc(Oc2ccccc2)cc1", "Operator Symbol": "<", "Recorded Number": 6.00}
{"Compound Structure": "NC(=O)[C@H](Cc1ccc(O)cc1)NC(=O)[C@H](CCC(=O)O)NC(=O)CCc1ccc(-c2ccc(-c3ccccc3)cc2)cc1", "Operator Symbol": "=", "Recorded Number": 7.14}
{"Compound Structure": "CC(C)C[C@H](NC(=O)[C@H](CCC(=O)O)NC(=O)CCc1ccc(-c2ccc(-c3ccccc3)cc2)cc1)C(N)=O", "Operator Symbol": "=", "Recorded Number": 6.48}
{"Compound Structure": "NC(=O)[C@H](CCC(=O)O)NC(=O)[C@H](Cc1ccc(O)cc1)NC(=O)CCc1ccc(-c2ccc(-c3ccccc3)cc2)cc1", "Operator Symbol": "<", "Recorded Number": 6.00}
{"Compound Structure": "NC(=O)[C@H](CCC(=O)O)NC(=O)[C@H](CCC(=O)O)NC(=O)CCc1ccc(COc2ccccc2)cc1", "Operator Symbol": "<", "Recorded Number": 6.00}
{"Compound Structure": "NC(=O)[C@H](CCC(=O)O)NC(=O)[C@H](CCC(=O)O)NC(=O)CCc1cc(-c2ccccc2)on1", "Operator Symbol": "<", "Recorded Number": 6.00}
{"Compound Structure": "Cc1csc(-c2ccc(CCC(=O)N[C@@H](CCC(=O)O)C(=O)N[C@@H](CCC(=O)O)C(N)=O)cc2)c1", "Operator Symbol": "=", "Recorded Number": 6.06}
{"Compound Structure": "NC(=O)[C@H](Cc1ccc(O)cc1)NC(=O)[C@H](CCC(=O)O)NC(=O)CCc1ccc(-c2ccccc2)cc1", "Operator Symbol": "=", "Recorded Number": 6.20}
{"Compound Structure": "NC(=O)[C@H](CCC(=O)O)NC(=O)[C@H](CCC(=O)O)NC(=O)CCc1ccc(-c2cccc(C(=O)O)c2)cc1", "Operator Symbol": "<", "Recorded Number": 5.30}
{"Compound Structure": "NC(=O)[C@H](CCC(=O)O)NC(=O)CCc1cc(-c2ccccc2)no1", "Operator Symbol": "=", "Recorded Number": 6.12}
{"Compound Structure": "NC(=O)[C@H](CCC(=O)O)NC(=O)[C@H](CC(=O)O)NC(=O)CCc1cc(-c2ccc(-c3cccc(Cl)c3)cc2)no1", "Operator Symbol": "=", "Recorded Number": 7.04}
{"Compound Structure": "NCCCC[C@H](NC(=O)[C@H](CCC(=O)O)NC(=O)CCc1ccc(-c2cccs2)cc1)C(N)=O", "Operator Symbol": "=", "Recorded Number": 6.63}
{"Compound Structure": "NCCCC[C@H](NC(=O)[C@H](CCC(=O)O)NC(=O)CCc1ccc(-c2ccc(-c3ccccc3)cc2)cc1)C(N)=O", "Operator Symbol": "=", "Recorded Number": 6.96}
{"Compound Structure": "CC(C)C[C@H](NC(=O)CCc1ccc(-c2ccc(-c3ccccc3)cc2)cc1)C(=O)N[C@@H](CCC(=O)O)C(N)=O", "Operator Symbol": "<", "Recorded Number": 6.00}
{"Compound Structure": "CC(C)C[C@H](NC(=O)[C@H](CCC(=O)O)NC(=O)CCc1ccc(-c2ccccc2)cc1)C(N)=O", "Operator Symbol": "<", "Recorded Number": 6.00}
{"Compound Structure": "NC(=O)[C@H](Cc1c[nH]cn1)NC(=O)[C@H](CCC(=O)O)NC(=O)CCc1ccc(-c2ccc(-c3ccccc3)cc2)cc1", "Operator Symbol": "=", "Recorded Number": 7.17}
{"Compound Structure": "O=C(O)CC[C@H](NC(=O)CCc1ccc(-c2cccs2)cc1)C(=O)N1CCC[C@@H](CC(=O)O)C1", "Operator Symbol": "=", "Recorded Number": 6.32}
{"Compound Structure": "Cc1ccc(-c2ccc(CCC(=O)N[C@@H](CCC(=O)O)C(=O)N[C@@H](CCC(=O)O)C(N)=O)cc2)s1", "Operator Symbol": "=", "Recorded Number": 7.01}
{"Compound Structure": "NC(=O)[C@H](CCC(=O)O)NC(=O)[C@H](CCC(=O)O)NC(=O)CCc1ccc(-c2cccc(Cl)c2)cc1", "Operator Symbol": "<", "Recorded Number": 6.00}
{"Compound Structure": "NC(=O)[C@H](CCC(=O)O)NC(=O)[C@H](CCC(=O)O)NC(=O)CCc1ccc(-c2cccs2)cc1", "Operator Symbol": "=", "Recorded Number": 6.85}
